Kindly state CC50 for each of the entries shown.
assay: in vitro; settings: African green monkey

# COMPOUND, RECORDED MEASUREMENT
rows = [
    ("O=C(/C=C/c1ccc(O)c(O)c1)OCCc1ccccc1 [Caffeic Acid Phenethyl Ester]", "> 100 µM"),
    ("CC1=C(C(=O)OCCN(Cc2ccccc2)c2ccccc2)C(c2cccc([N+](=O)[O-])c2)C(P2(=O)OCC(C)(C)CO2)=C(C)N1 (stereo not drawn) [Efonidipine, reference compound]", "> 100 µM"),
]

In the following, a different compound is considered.
For record C=CC1=C(C)c2cc3[nH]c(cc4nc(cc5[nH]c(cc1n2)c(C)c5CCC(=O)O)C(CCC(=O)O)=C4C)c(C)c3C=C [Protoporphyrin IX] the listed CC50 is > 100 µM
